Molecular target: Virion infectivity factor (Human immunodeficiency virus type 1 group M subtype B (isolate BH10)) + Virion infectivity factor (Human immunodeficiency virus type 1 group M subtype B (isolate BRU/LAI)) + Virion infectivity factor (Human immunodeficiency virus type 1 group M subtype B (isolate PCV12)) + Virion infectivity factor (Human immunodeficiency virus type 1 group M subtype B (isolate HXB2)) + DNA dC->dU-editing enzyme APOBEC-3G (Homo sapiens) (UniProt P69720+P69721+P69722+P69723+Q9HC16)
Assay: inhibitors of Vif binding to APOBEC3G peptide, primary screen, biochemical, TR-FRET, GST-Vif 1-94, biotin-A3G peptide, dose response retest (AID 1117319);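 note: Vif residues 1-94 fused to GST binding biotinylated APOBEC3G peptide 110-148; 0% = full assay without inhibitor and 100% = GST in place of GST-Vif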
Conditions: stronger effect = higher value
The campaign covered roughly 260,000 compounds. About 1,500 (0.58%) were called active. Roughly 5% stayed inconclusive and do not appear here. Not all results are given here. Potency and affinity values are given separately.
readout.kind: inhibition (%)

| compound | readout.kind | unit.tag | numeric.readout |
| --- | --- | --- | --- |
| Cc1cc(C(=O)CC#N)c(C)n1-c1c(C)n(C)n(-c2ccccc2)c1=O | inhibition | % | 3.73 |
| CCn1c(COc2ccc3c(c2)OCO3)nnc1SCC(=O)c1ccccc1 | inhibition | % | 9 |
| COc1ccc(CN2CCNC(=O)C2CC(=O)N(Cc2nccn2C)C(C)C)c(OC)c1 (stereo unspecified) | inhibition | % | -0.6 |
| O=S(=O)(NCCN1CCN(S(=O)(=O)c2ccccc2F)CC1)c1ccccc1F | inhibition | % | 1.35 |
| CNS(=O)(=O)c1cccc(C(=O)OCC(=O)NC(C)CCc2ccccc2)c1 (stereo unspecified) | inhibition | % | 1.38 |
| O=C(CCc1c[nH]c2ccccc12)NCc1ccco1 | inhibition | % | 14.9 |
| COC(=O)c1[nH]c(C)c(/C(O)=C2\C(=O)C(=O)N(CCN3CCOCC3)C2c2ccco2)c1C (stereo unspecified) | inhibition | % | 10.8 |
| NS(=O)(=O)c1ccc(CNC(=O)c2ccc(S(=O)(=O)NCc3ccco3)cc2)cc1 | inhibition | % | -7.37 |
| Cc1ccc(N(CC(=O)NC(C)(C)C)C(=O)CS(=O)CC(=O)Nc2ccc(F)cc2)cc1 (stereo unspecified) | inhibition | % | 10.4 |
| Cc1c(C(=O)N(C)Cc2nc3ccccc3c(=O)[nH]2)oc2ccccc12 | inhibition | % | -2.36 |
| CCCCCC(O)(c1ccc(OCC)cc1)C(CN1CCOCC1)c1ccccc1 (stereo unspecified) | inhibition | % | -5.23 |

* * *

Here the recorded inhibition is given for each entry.
Biological target: Virion infectivity factor (Human immunodeficiency virus type 1 group M subtype B (isolate BH10)) + Virion infectivity factor (Human immunodeficiency virus type 1 group M subtype B (isolate BRU/LAI)) + Virion infectivity factor (Human immunodeficiency virus type 1 group M subtype B (isolate PCV12)) + Virion infectivity factor (Human immunodeficiency virus type 1 group M subtype B (isolate HXB2)) + DNA dC->dU-editing enzyme APOBEC-3G (Homo sapiens) (UniProt P69720+P69721+P69722+P69723+Q9HC16)
Experiment: inhibitors of Vif binding to APOBEC3G peptide, primary screen, biochemical, TR-FRET, GST-Vif 1-94, biotin-A3G peptide, dose response retest (AID 1117319);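 note: Vif residues 1-94 fused to GST binding biotinylated APOBEC3G peptide 110-148; 0% = full assay without inhibitor and 100% = GST in place of GST-Vif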
Settings: stronger effect = higher value
Hit rate of the full screen: of about 260,000 compounds, about 1,500 (0.58%) were called active. Not shown: some 5% with an inconclusive outcome. The list is a sample of the results. Results with a measured potency or affinity are listed apart.

| compound | unit.tag | inhibition |
| --- | --- | --- |
| CC1(C)CC(=O)C(C=NCCO)=C(O)C1 | % | -1.68 |
| Cc1[nH]ccc(=O)c1Oc1ncc(C(F)(F)F)cc1Cl | % | -2.35 |
| Cc1ccc(S(=O)(=O)Nc2cccc(C(=O)N3CCCC3)c2)cc1F | % | 3.33 |
| COC(=O)c1ccc2c(c1)SC1=C(CCCC1=O)N2 | % | 20.1 |
| NC(=O)N/N=C/c1ccc(-c2ccc([N+](=O)[O-])cc2)o1 | % | 0.97 |
| CN(Cc1ccccc1)S(=O)(=O)c1ccc(Cl)c(C(=O)NCCCN2CCOCC2)c1 | % | -5.26 |
| Nc1cc(=O)[nH]c(SCc2ccc(Cl)cc2Cl)n1 | % | -1 |
| COc1ccc(-c2nc3ccccc3n2OCC(=O)O)cc1 | % | 15.9 |
| CC(C)(C)NC(=O)C(c1ccncc1)N(C(=O)CNC(=O)c1ccco1)c1ccc(F)cc1 (configuration not stated) | % | 5.09 |
| COc1ccccc1N1CCN(C(=O)COc2ccc(S(=O)(=O)NC(C)C)cc2)CC1 | % | 0.75 |
| COc1ccc(C(=O)COC(=O)CNC(=O)c2ccc(Cl)cc2Cl)c(OC)c1 | % | 3.17 |
| Cc1ccc(N2C(=O)CN(Cc3sccc3C)C2=S)cc1C | % | 8.31 |
| Cc1ccc(S(=O)(=O)CCC(=O)NCCc2ccccc2)cc1 | % | 1.3 |
| NS(=O)(=O)c1ccc(CCNC(=O)CSc2ccsc2[N+](=O)[O-])cc1 | % | 4.39 |
| COc1cccc(C(=O)NCc2ccc(N3CCN(C(=O)OC(C)(C)C)CC3)cc2)c1 | % | 4.61 |
| CCN(c1ccc(OC)cc1)S(=O)(=O)c1nnc(NC(=O)COc2ccccc2)s1 | % | 6.53 |
| c1ccc(C2CNCCc3ccccc32)cc1 (configuration not stated) | % | -8.69 |
